# koff per entry
Biological target: T1, Human IL-18Rα extracellular domain (human, UniProt Q13478 22-329, biotinylated (site not stated))
T1 construct: also called IL-18 receptor
T1 sequence: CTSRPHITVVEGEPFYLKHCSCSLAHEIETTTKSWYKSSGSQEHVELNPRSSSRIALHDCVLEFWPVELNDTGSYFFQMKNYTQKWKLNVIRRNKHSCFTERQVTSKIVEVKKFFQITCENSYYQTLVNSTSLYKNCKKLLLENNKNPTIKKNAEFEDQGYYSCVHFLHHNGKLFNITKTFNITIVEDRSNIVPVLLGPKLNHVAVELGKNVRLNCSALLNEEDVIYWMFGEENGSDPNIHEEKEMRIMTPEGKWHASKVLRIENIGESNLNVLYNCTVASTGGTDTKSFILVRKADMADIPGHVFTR
Experiment: SPR, Biacore 8K, 37 C, biotinylated target on SA chip, single-cycle kinetics
MEASUREMENT LABEL: koff (s⁻¹)

Human IL-18 L45C/E192C (ligand, Made in mammalian cells) YFGKLESKCSVIRNLNDQVLFIDQGNRPLFEDMTDSDSRDNAPRTIFIISMYKDSQPRGMAVTISVKSEKISTLSSENKIISFKEMNPPDNIKDTKSDIIFFQRSVPGHDNKMQFESSSYEGYFLASEKERDLFKLILKKEDELGDRSIMFTVQNCD: 0.028
Human IL-18 S101C/T109C (ligand, Made in mammalian cells) YFGKLESKLSVIRNLNDQVLFIDQGNRPLFEDMTDSDSRDNAPRTIFIISMYKDSQPRGMAVTICVKSEKISCLSSENKIISFKEMNPPDNIKDTKSDIIFFQRSVPGHDNKMQFESSSYEGYFLASEKERDLFKLILKKEDELGDRSIMFTVQNED: 0.042
Human IL-18 T99C/P124C (ligand, Made in mammalian cells) YFGKLESKLSVIRNLNDQVLFIDQGNRPLFEDMTDSDSRDNAPRTIFIISMYKDSQPRGMAVCISVKSEKISTLSSENKIISFKEMNCPDNIKDTKSDIIFFQRSVPGHDNKMQFESSSYEGYFLASEKERDLFKLILKKEDELGDRSIMFTVQNED: 0.032
